Assay: ATG_Sox_CIS: Attagene CIS-FACTORIAL HepG2 Assay for human SRY-box transcription factor (SOX) (AID 2282960)
Settings: HepG2 Attagene cis-factorial SOX reporter, mRNA; actives raise or lower the signal
Experimental: ATG_CIS is a cell-based, multiplexed-readout assay that uses HepG2, a human liver cell line, with measurements taken at 24 hours after chemical dosing in a 24-well plate.ATG_Sox_CIS is one of 52 assay component(s) measured or calculated from the ATG_CIS assay. […] This assay endpoint, ATG_Sox_CIS, was analyzed with bidirectional fitting relative to DMSO as the negative control and baseline of activity. […]
Calls of active or inactive are those of the source. The calls were made as follows: active = hit-call score of the fitted dose curve at least 0.9, where 1 is the maximum; inactive = score below 0.9.
Outcomes: active, inactive

{"compound": "CN1C(=O)c2ccccc2C1=O", "categoryLabel": "inactive"}
{"compound": "C=C1CC[C@H](O)C/C1=C/C=C1\\CCC[C@]2(C)[C@@H]([C@H](C)/C=C/[C@H](C)C(C)C)CC[C@@H]12", "categoryLabel": "inactive"}
{"compound": "CCOC(=O)CC(C)O (centres undefined)", "categoryLabel": "inactive"}
{"compound": "CC(C)NCC(O)COc1ccc(CC(N)=O)cc1 (centres undefined)", "categoryLabel": "inactive"}
{"compound": "CCCC(C)C(O)CC (centres undefined)", "categoryLabel": "inactive"}
{"compound": "C=C(C)C(=O)OCCOCCOCCOC(=O)C(=C)C", "categoryLabel": "inactive"}
{"compound": "O=C1OC[C@H](Cc2cccc(O)c2)[C@H]1Cc1cccc(O)c1", "categoryLabel": "inactive"}
{"compound": "CCCC[O][Al]([O]CCCC)[O]CCCC", "categoryLabel": "inactive"}
{"compound": "CCCC(=O)OCCc1ccccc1", "categoryLabel": "inactive"}
{"compound": "CSCCC=O", "categoryLabel": "inactive"}
{"compound": "NCc1ccco1", "categoryLabel": "inactive"}
{"compound": "CN1CCOCC1", "categoryLabel": "inactive"}
{"compound": "O=C(CC(=O)c1ccccc1)c1ccccc1", "categoryLabel": "active"}
{"compound": "CCCCOC(=O)CCCCCCCC(=O)OCCCC", "categoryLabel": "inactive"}
{"compound": "C=CC(C)C#N (centres undefined)", "categoryLabel": "inactive"}
{"compound": "N#Cc1cscn1", "categoryLabel": "inactive"}
{"compound": "OCC#CCO", "categoryLabel": "inactive"}
{"compound": "CCN(CC)C(=O)N(CC)CC", "categoryLabel": "inactive"}
{"compound": "O=C1OC(=O)c2c(Cl)c(Cl)c(Cl)c(Cl)c21", "categoryLabel": "inactive"}
{"compound": "Cc1cc(CCC(=O)OCCOCCOCCOC(=O)CCc2cc(C)c(O)c(C(C)(C)C)c2)cc(C(C)(C)C)c1O", "categoryLabel": "inactive"}
{"compound": "N[C@@H](Cc1cc(I)c(Oc2cc(I)c(O)c(I)c2)c(I)c1)C(=O)O", "categoryLabel": "inactive"}
{"compound": "Nc1ccc2cc(S(=O)(=O)O)cc(O)c2c1N=Nc1ccccc1C(F)(F)F", "categoryLabel": "inactive"}
{"compound": "CCC1CCCCC1", "categoryLabel": "inactive"}
{"compound": "COc1ccc(CCO)cc1", "categoryLabel": "inactive"}
{"compound": "O=C1NC2NC(=O)NC2N1 (centres undefined)", "categoryLabel": "inactive"}
{"compound": "CCOc1ccc(N=Nc2ccc(C=Cc3ccc(N=Nc4ccc(OCC)cc4)cc3S(=O)(=O)O)c(S(=O)(=O)O)c2)cc1", "categoryLabel": "inactive"}
{"compound": "C=C(C)CNCC", "categoryLabel": "inactive"}
{"compound": "COc1cc(C(C)C)ccc1C", "categoryLabel": "inactive"}
{"compound": "O=Cc1ccccc1S(=O)(=O)O", "categoryLabel": "inactive"}
{"compound": "CC1=C(Br)C(=O)C(Br)=C/C1=C(/c1ccccc1S(=O)(=O)O)c1cc(Br)c(O)c(Br)c1C", "categoryLabel": "inactive"}
{"compound": "C1=CC2C3C=CC(C3)C2C1 (centres undefined)", "categoryLabel": "inactive"}
{"compound": "CC(=O)C1(C)CC2=C(CCCC2(C)C)CC1C (centres undefined)", "categoryLabel": "inactive"}
{"compound": "C=C1C[C@]23C[C@@]1(O)CC[C@H]2[C@@]12C=C[C@H](O)[C@@](C)(C(=O)O1)[C@H]2[C@@H]3C(=O)O", "categoryLabel": "inactive"}
{"compound": "C=COCCOCCOC=C", "categoryLabel": "inactive"}
{"compound": "CC(=O)OCCCc1ccccc1", "categoryLabel": "inactive"}
{"compound": "CCCCCCCCCC(C)C=O (centres undefined)", "categoryLabel": "inactive"}
{"compound": "C=C(C)C(=O)OCC(CC)(COC(=O)C(=C)C)COC(=O)C(=C)C", "categoryLabel": "inactive"}
{"compound": "C#CC(C)(O)CC(C)C (centres undefined)", "categoryLabel": "inactive"}
{"compound": "Cc1ccc(OC(=O)c2ccccc2O)cc1", "categoryLabel": "inactive"}
{"compound": "CCC1(C)NC(=O)NC1=O (centres undefined)", "categoryLabel": "inactive"}
{"compound": "CCC(=O)OCCOc1ccccc1", "categoryLabel": "inactive"}
{"compound": "CCOc1ccc(NC(=O)CC(C)=O)cc1", "categoryLabel": "inactive"}
{"compound": "CC(C)=CCCC(C)CC(=O)O (centres undefined)", "categoryLabel": "inactive"}
{"compound": "COc1ccc(CCC(C)=O)cc1", "categoryLabel": "inactive"}
{"compound": "CCCCCCC(=O)c1ccccc1", "categoryLabel": "inactive"}
{"compound": "N#Cc1ccc(CC(=O)c2cccc(C(F)(F)F)c2)cc1", "categoryLabel": "inactive"}
{"compound": "O=C(O)c1ccc(O)cc1", "categoryLabel": "inactive"}
{"compound": "CC[N+](C)(CC)CC", "categoryLabel": "inactive"}
{"compound": "C1CCOC1", "categoryLabel": "inactive"}
